Catalogue of viability, T/C values
Test system: 991263-137-R1-J2-PDC complex spheroid viability;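 further: spheroids exposed to compounds for 7 days before readout; 100% = DMSO vehicle control viability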
Test: Anticancer human tumor 991263-137-R1-J2-PDC patient-derived colon adenocarcinoma cell line growth inhibition [POLQ]
Details: second compound 1 µM; first compound 0.0316 µM; stronger effect = lower value
Write the answer as a number in %, unit excluded.

Use these answered entries as a reference point.
Nc1ccn(C2OC(CO)C(O)C2(F)F)c(=O)n1 (stereo not given) + COC1C(OC(N)=O)C(O)C(Oc2ccc3c(O)c(NC(=O)c4ccc(O)c(CC=C(C)C)c4)c(=O)oc3c2C)OC1(C)C; 72.8
COc1cc(C2c3cc4c(cc3C(OC3OC5COC(C)OC5C(O)C3O)C3COC(=O)C23)OCO4)cc(OC)c1O (stereo not given) + COC1C(OC(N)=O)C(O)C(Oc2ccc3c(O)c(NC(=O)c4ccc(O)c(CC=C(C)C)c4)c(=O)oc3c2C)OC1(C)C; 107
COc1cccc(OCCCN)c1-c1cc(Nc2cnc(C#N)cn2)n[nH]1 + COC1C(OC(N)=O)C(O)C(Oc2ccc3c(O)c(NC(=O)c4ccc(O)c(CC=C(C)C)c4)c(=O)oc3c2C)OC1(C)C; 80.6
O=C(c1cc(Cc2n[nH]c(=O)c3ccccc23)ccc1F)N1CCN(C(=O)C2CC2)CC1 + Cc1cccc(N(C)C(=O)C2C(O)CCN2c2nc(C)cc(C(F)(F)F)c2C#N)c1; 90.2
C#Cc1c(F)ccc2cc(O)cc(-c3ncc4c(N5CC6CCC(C5)N6)nc(OCC56CCCN5CC(F)C6)nc4c3F)c12 (stereo not given) + Cc1cccc(N(C)C(=O)C2C(O)CCN2c2nc(C)cc(C(F)(F)F)c2C#N)c1; 93.8

Could you now consider this next compound?
// viability, T/C value for CNCc1ccc(-c2[nH]c3cc(F)cc4c3c2CCNC4=O)cc1 + COC1C(OC(N)=O)C(O)C(Oc2ccc3c(O)c(NC(=O)c4ccc(O)c(CC=C(C)C)c4)c(=O)oc3c2C)OC1(C)C : 82.1
